target: bovine thymus 1α,25-dihydroxyvitamin D3 receptor (VDR) (Bos taurus); conditions: relative intensity ratio based on 100 for 1α,25-dihydroxyvitamin D3, from the concentration inhibiting [3H]1α,25-dihydroxyvitamin D3 (0.1 nM) binding by 50%
endpoint.label: Binding Affinity for VDR
# output: bare number, no unit

Exam item: Field request: Binding Affinity for VDR | item: `C=C1/C(=C\C=C2/CCC[C@]3(C)[C@@H]([C@@H](C)CCCC(C)(C)O)CC[C@@H]23)C[C@@H](O)[C@@H](C)[C@@H]1O`
Marked response: 160

Exam item: Field request: Binding Affinity for VDR | item: C=C1C(=CC=C2CCCC3(C)C2CCC3C(C)CCCC(C)(C)O)CC(O)C(C)C1O (stereo not shown) [Compound (7), reference compound]
Marked response: 0.06

Exam item: Field request: Binding Affinity for VDR | item: `C=C1/C(=C\C=C2/CCC[C@]3(C)[C@@H]([C@@H](C)CCCC(C)(C)O)CC[C@@H]23)C[C@H](O)[C@H](C)[C@H]1O`
Marked response: 0.03

Exam item: Field request: Binding Affinity for VDR | item: `C=C1/C(=C\C=C2/CCC[C@]3(C)[C@@H]([C@@H](C)CCCC(C)(C)O)CC[C@@H]23)C[C@@H](O)[C@H](C)[C@H]1O`
Marked response: 0.05

Exam item: Field request: Binding Affinity for VDR | item: `C=C1/C(=C\C=C2/CCC[C@]3(C)[C@@H]([C@@H](C)CCCC(C)(C)O)CC[C@@H]23)C[C@@H](O)[C@@H](C)[C@H]1O`
Marked response: 0.03

Exam item: Field request: Binding Affinity for VDR | item: C=C1C(=CC=C2CCCC3(C)C2CCC3C(C)CCCC(C)(C)O)CC(O)C(C)C1O (stereo not shown) [Compound (72)]
Marked response: 1200

Exam item: Field request: Binding Affinity for VDR | item: `C=C1/C(=C\C=C2/CCC[C@]3(C)[C@@H]([C@@H](C)CCCC(C)(C)O)CC[C@@H]23)C[C@H](O)[C@@H](C)[C@@H]1O`
Marked response: 0.08

Exam item: Field request: Binding Affinity for VDR | item: C=C1C(=CC=C2CCCC3(C)C2CCC3C(C)CCCC(C)(C)O)CC(O)C(C)C1O (stereo not shown) [Compound (4), reference compound]
Marked response: 400

Exam item: Field request: Binding Affinity for VDR | item: C=C1C(=CC=C2CCCC3(C)C2CCC3C(C)CCCC(C)(C)O)CC(O)C(C)C1O (stereo not shown) [Compound (2), reference compound]
Marked response: 0.3

Exam item: Field request: Binding Affinity for VDR | item: C=C1C(=CC=C2CCCC3(C)C2CCC3C(C)CCCC(C)(C)O)CC(O)C(C)C1O (stereo not shown) [Compound (1), reference compound]
Marked response: 0.05

Exam item: Field request: Binding Affinity for VDR | item: `C=C1/C(=C\C=C2/CCC[C@]3(C)[C@@H]([C@@H](C)CCCC(C)(C)O)CC[C@@H]23)C[C@H](O)[C@@H](C)[C@H]1O`
Marked response: 7

Exam item: Field request: Binding Affinity for VDR | item: C=C1C(=CC=C2CCCC3(C)C2CCC3C(C)CCCC(C)(C)O)CC(O)C(C)C1O (stereo not shown) [Compound (5), reference compound]
Marked response: 0.05

Exam item: Field request: Binding Affinity for VDR | item: C=C1C(=CC=C2CCCC3(C)C2CCC3C(C)CCCC(C)(C)O)CC(O)C(C)C1O (stereo not shown) [Compound (65), reference compound]
Marked response: 13

* * *

target: bovine thymus 1α,25-dihydroxyvitamin D3 receptor (VDR) (Bos taurus, UniProt Q28037); conditions: relative intensity ratio based on 100 for 1α,25-dihydroxyvitamin D3, from the concentration inhibiting [3H]1α,25-dihydroxyvitamin D3 (0.1 nM) binding by 50%
Sequence (Q28037 whole entry): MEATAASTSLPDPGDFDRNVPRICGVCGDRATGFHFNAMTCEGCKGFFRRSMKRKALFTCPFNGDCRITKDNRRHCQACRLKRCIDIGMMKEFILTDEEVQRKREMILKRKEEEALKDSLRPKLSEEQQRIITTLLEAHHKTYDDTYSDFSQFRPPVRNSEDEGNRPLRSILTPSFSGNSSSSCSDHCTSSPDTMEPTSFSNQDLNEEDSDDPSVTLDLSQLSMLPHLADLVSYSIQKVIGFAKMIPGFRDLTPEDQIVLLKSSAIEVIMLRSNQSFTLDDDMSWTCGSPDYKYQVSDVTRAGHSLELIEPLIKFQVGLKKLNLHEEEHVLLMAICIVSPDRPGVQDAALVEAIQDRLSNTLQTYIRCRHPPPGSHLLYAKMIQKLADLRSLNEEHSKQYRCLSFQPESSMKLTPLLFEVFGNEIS
Task for the reader: assign each of the following compounds its reported Binding Affinity for VDR.
# output: bare number, no unit

Exam item: Field request: Binding Affinity for VDR | item: `C=C1/C(=C\C=C2/CCC[C@]3(C)[C@@H]([C@@H](C)CCCC(C)(C)O)CC[C@@H]23)C[C@H](O)[C@H](C)[C@@H]1O`
Marked response: 17

Exam item: Field request: Binding Affinity for VDR | item: C=C1C(=CC=C2CCCC3(C)C2CCC3C(C)CCCC(C)(C)O)CC(O)C(C)C1O (stereo not drawn) [Compound (3), reference compound]
Marked response: 0.8

Exam item: Field request: Binding Affinity for VDR | item: C=C1C(=CC=C2CCCC3(C)C2CCC3C(C)CCCC(C)(C)O)CC(O)C(C)C1O (stereo not drawn) [Compound (6), reference compound]
Marked response: 4
